Values compiled from ChEMBL document CHEMBL4837268.

Assay: Stability of the compound in acetonitrile/buffer mixture at pH 7.4 assessed as parent compound remaining measured after 24 hrs by HPLC analysis
Assay type: physicochemical
Conditions: read-out: Stabilty
property label: remaining at 24 h (%)

> print(dat)
                                   molecule     property.label  readout.unit  recorded.value
1  O=C1CCC(N2Cc3cc(NC(=O)COCCOCCOCc4ccccc4)ccc3C2=O)C(=O)N1 (stereo unspecified)  remaining at 24 h             %              73
2  O=C1CCC(N2Cc3c(NCCOCCOCCOCc4ccccc4)cccc3C2=O)C(=O)N1 (stereo unspecified)  remaining at 24 h             %              74
3  O=C1CCC(N2Cc3c(NC(=O)COCCOCCOCc4ccccc4)cccc3C2=O)C(=O)N1 (stereo unspecified)  remaining at 24 h             %              79

1. O=C1CCC(N2C(=O)c3ccc(OCCOCCOCCOCc4ccccc4)cc3C2=O)C(=O)N1 (stereo unspecified)
2. O=C1CCC(N2C(=O)c3ccc(C#CCOCCOCCOCc4ccccc4)cc3C2=O)C(=O)N1 (stereo unspecified)
Q) Param pair: 1 , 2 . Output: the one whose remaining at 24 h is numerically greater. Refer to your chosen entry by its label in the reply.
A) 1
(1: 30%, 2: 1%)
